In this section we review reported Average of 2 trials SEPTTR-184 1DP values for a set of molecules.
- Test system: Zymoseptoria tritici (SEPTTR-184)
- PROTOCOL TEXT: Efficacy of target gene fragments (MgCytB dsRNA tiles) on wheat plants, SEPTTR-184
- Assay type: in vivo
- Design: scale not given here
- ASSAY CONDITIONS: 12.5 ppm; 1DP (preventative)
Give the figure only, with no unit attached.

// known answers, use as guide
Problem: Suppose we examine the molecule MgCytB-T7: 221 bp dsRNA of Zymoseptoria CytB region T7, location 947-1167 (SEQ ID NO:10) (nucleic acid, listed as Zymoseptoria tritici, complementary strand of dsRNA) GATTACAGTTTAGACCTTTAAGCAAGATCACATTTTACATATTTGTTGCTAACTTCTTAGTATTAATGCAATTAGGTGCTAATCACGTTGAGTCACCATTTATAGAATTTGGGCAAATTAGTACAGTACTGTACTTTTCACATTTCTTAATCATAGTGCCTCTAGTAAGCTTAATCGAGAATACTTTAGTGGATATGCACTTAAACAACACAATAACGTAA ; what Average of 2 trials SEPTTR-184 1DP value has been reported?
Result: 69

Problem: Entry to check: MgCytB-T5: 172 bp dsRNA of Zymoseptoria CytB region T5, location 173-344 (SEQ ID NO:8) (nucleic acid, listed as Zymoseptoria tritici, complementary strand of dsRNA) TATCTGAAGCATTTAACTCAGTTGAACACATAATGAGAGATGTAAACAATGGATGACTTATACGTTATCTTCACTCTAATACTGCTTCAGCTTTCTTCTTTTTAGTTTACCTGCACGTGGGTAGAGGGTTATACTACGGGTCATACAAAGCCCCTAGAACATTAACATGAAC
Result: 68

Problem: Entry to check: MgCytB-T4: 219 bp dsRNA of Zymoseptoria CytB region T4, location 1-219 (SEQ ID NO:7) (nucleic acid, listed as Zymoseptoria tritici, complementary strand of dsRNA) ATGAGGATTTGGAAGAGTCACCCTTTATTTAGTCTGGTTAATGGTTATCTTATCGATTCACCACAACCAAGTAATCTAAGCTATCTATGAAATTTCGGTTCATTACTGGGATTTTGTCTTGTAATACAAATCGTTACTGGTGTTACACTTGCTATGCATTATAACCCTAGCGTATCTGAAGCATTTAACTCAGTTGAACACATAATGAGAGATGTAAAC
Result: 74

Problem: Entry to check: MgCytB-T2: 203 bp dsRNA of Zymoseptoria CytB region 2, location 603-805 (SEQ ID NO:5) (nucleic acid, listed as Zymoseptoria tritici, complementary strand of dsRNA) ACACGATACAGCGGGTTCAGGAAATCCTTTAGGTGTATCAGGTAACTACGATAGATTACCATTCGCCCCTTACTTTATATTCAAAGATTTAATAACAATATTTTTATTCATTATAGTGTTATCAATATTTATTTTCTTTATGCCTAACGTTTTAGGTGACAGCGAGAATTATGTTATGGCTAACCCTATGCAAACTCCACCTG
Result: 71

Problem: Entry to check: MgCytB-T3: 116 bp dsRNA of Zymoseptoria CytB region 3, location 279-394 (SEQ ID NO:6) (nucleic acid, listed as Zymoseptoria tritici, long dsRNA, chemistry not given here, further chemistry not given here) TTACCTGCACGTGGGTAGAGGGTTATACTACGGGTCATACAAAGCCCCTAGAACATTAACATGAACAATCGGTACTATAATACTAGTTCTGATGATGGCAACCGCATTCTTAGGGT
Result: 64

Could you now look at the following molecule, please?
Problem: Suppose we examine the molecule MgCytB-T1: 267 bp dsRNA of Zymoseptoria CytB region 1, location 364-630 (SEQ ID NO:4) (nucleic acid, listed as Zymoseptoria tritici, complementary strand of dsRNA) GTTCTGATGATGGCAACCGCATTCTTAGGGTATGTATTACCTTATGGTCAAATGTCTTTATGAGGAGCAACAGTTATAACTAACTTATTGAGTGCAATACCTTGAGTTGGACAAGACATAGTTGAATTCGTATGAGGTGGATTTTCTGTTAACAATGCAACATTGAACAGATTCTTTGCTCTACATTTCGTTTTACCGTTTGTGTTAGCTGCATTAGTTTTAATGCATCTAATAGCTTTACACGATACAGCGGGTTCAGGAAATCCT ; what Average of 2 trials SEPTTR-184 1DP value has been reported?
Result: 58
